Listing of entries alongside the reported EC50.
# target-system: T1, huNav1.7α+β1 (human, UniProt Q15858 1-1988; Q07699 19-218)
# T1 construct: also called huNav1.7-beta1; HEKa/β1
# assay-explanation: binding FACS, HEKa/β1 cells
reported-metric: EC50

[[record]]
binder = "F010301113 (VHH, vs F0103265A11: A31R, V60N, R101V, L103Q) VHH: EVQLVESGGGLVQPGGSLRLSCAASGMLFNRNTQGWYRQAPGKQRELVAFIFSGGYTNYNDSVKGRFTISRDNAKRTMYLQMNSLKPEDSAIYYCSLSVYQGQGTLVTVSS"
observed_value = "5.7 nM"

[[record]]
binder = "F010301557 (VHH, vs 387G05: D23A, D53G, D54G) VHH: EVQLVESGGGLVQAGGSLRLSCAASGRILRIGYMRWHRQGAGKQREFVARITGGSATDYADSVKGRFTISRDNAKNTVYLQMNNLNPEDTAVYYCEALVTASVRGGSIHSGTYWGRGTLVTVSS"
observed_value = "2.1 nM"

[[record]]
binder = "F010301138 (VHH, vs F0103265A11: N30Y, V60N, S93A, L103Q) VHH: EVQLVESGGGLVQPGGSLRLSCAASGMLFYANTQGWYRQAPGKQRELVAFIFSGGYTNYNDSVKGRFTISRDNAKRTMYLQMNSLKPEDSAIYYCALSRYQGQGTLVTVSS"
observed_value = "9.7 nM"

[[record]]
binder = "F010301344 (VHH, vs 387G05: D54G) VHH: EVQLVESGGGLVQAGGSLRLSCDASGRILRIGYMRWHRQGAGKQREFVARITDGSATDYADSVKGRFTISRDNAKNTVYLQMNNLNPEDTAVYYCEALVTASVRGGSIHSGTYWGRGTLVTVSS"
observed_value = "2.1 nM"

[[record]]
binder = "F010301463 (VHH, vs F0103265A11: A31R, V60N, S93A, L103Q) VHH: EVQLVESGGGLVQPGGSLRLSCAASGMLFNRNTQGWYRQAPGKQRELVAFIFSGGYTNYNDSVKGRFTISRDNAKRTMYLQMNSLKPEDSAIYYCALSRYQGQGTLVTVSS"
observed_value = "2.5 nM"

[[record]]
binder = "F010301232 (VHH, vs F0103265A11: A31R, N58T, S93A, L103Q) VHH: EVQLVESGGGLVQPGGSLRLSCAASGMLFNRNTQGWYRQAPGKQRELVAFIFSGGYTTYVDSVKGRFTISRDNAKRTMYLQMNSLKPEDSAIYYCALSRYQGQGTLVTVSS"
observed_value = "9.3 nM"

[[record]]
binder = "F010301558 (VHH, vs 387G05: D23A, D53G, D58G) VHH: EVQLVESGGGLVQAGGSLRLSCAASGRILRIGYMRWHRQGAGKQREFVARITGDSATGYADSVKGRFTISRDNAKNTVYLQMNNLNPEDTAVYYCEALVTASVRGGSIHSGTYWGRGTLVTVSS"
observed_value = "0.93 nM"

[[record]]
binder = "F010301129 (VHH, vs F0103265A11: Y56W, V60N, S93A, L103Q) VHH: EVQLVESGGGLVQPGGSLRLSCAASGMLFNANTQGWYRQAPGKQRELVAFIFSGGWTNYNDSVKGRFTISRDNAKRTMYLQMNSLKPEDSAIYYCALSRYQGQGTLVTVSS"
observed_value = "3.6 nM"

[[record]]
binder = "F010301556 (VHH, also called F0103387G05(D23A, D53G, D54G, D58G)) VHH: EVQLVESGGGLVQAGGSLRLSCAASGRILRIGYMRWHRQGAGKQREFVARITGGSATGYADSVKGRFTISRDNAKNTVYLQMNNLNPEDTAVYYCEALVTASVRGGSIHSGTYWGRGTLVTVSS"
observed_value = "1.4 nM"

[[record]]
binder = "F010301367 (VHH, vs 387G05: D53G) VHH: EVQLVESGGGLVQAGGSLRLSCDASGRILRIGYMRWHRQGAGKQREFVARITGDSATDYADSVKGRFTISRDNAKNTVYLQMNNLNPEDTAVYYCEALVTASVRGGSIHSGTYWGRGTLVTVSS"
observed_value = "1.9 nM"

[[record]]
binder = "F010301445 (VHH, vs 387G05: S100dY) VHH: EVQLVESGGGLVQAGGSLRLSCDASGRILRIGYMRWHRQGAGKQREFVARITDDSATDYADSVKGRFTISRDNAKNTVYLQMNNLNPEDTAVYYCEALVTASVRGGYIHSGTYWGRGTLVTVSS"
observed_value = "2 nM"

[[record]]
binder = "F010301350 (VHH, vs 387G05: D58V) VHH: EVQLVESGGGLVQAGGSLRLSCDASGRILRIGYMRWHRQGAGKQREFVARITDDSATVYADSVKGRFTISRDNAKNTVYLQMNNLNPEDTAVYYCEALVTASVRGGSIHSGTYWGRGTLVTVSS"
observed_value = "1.7 nM"

[[record]]
binder = "F010301080 (VHH, also called F0103265A11(S53W, T57V, N58T, V60N)) VHH: EVQLVESGGGLVQPGGSLRLSCAASGMLFNANTQGWYRQAPGKQRELVAFIFWGGYVTYNDSVKGRFTISRDNAKRTMYLQMNSLKPEDSAIYYCSLSRYLGQGTLVTVSS"
observed_value = "3 nM"

[[record]]
binder = "F010301111 (VHH, vs F0103265A11: T57V, V60N, S93A) VHH: EVQLVESGGGLVQPGGSLRLSCAASGMLFNANTQGWYRQAPGKQRELVAFIFSGGYVNYNDSVKGRFTISRDNAKRTMYLQMNSLKPEDSAIYYCALSRYLGQGTLVTVSS"
observed_value = "5.4 nM"

[[record]]
binder = "F010301126 (VHH, vs F0103265A11: A31R, T57V, N58T, V60N) VHH: EVQLVESGGGLVQPGGSLRLSCAASGMLFNRNTQGWYRQAPGKQRELVAFIFSGGYVTYNDSVKGRFTISRDNAKRTMYLQMNSLKPEDSAIYYCSLSRYLGQGTLVTVSS"
observed_value = "5.6 nM"

